Biological target: CB2 (Homo sapiens (Human), UniProt P34972)
Sequence (P34972 whole entry): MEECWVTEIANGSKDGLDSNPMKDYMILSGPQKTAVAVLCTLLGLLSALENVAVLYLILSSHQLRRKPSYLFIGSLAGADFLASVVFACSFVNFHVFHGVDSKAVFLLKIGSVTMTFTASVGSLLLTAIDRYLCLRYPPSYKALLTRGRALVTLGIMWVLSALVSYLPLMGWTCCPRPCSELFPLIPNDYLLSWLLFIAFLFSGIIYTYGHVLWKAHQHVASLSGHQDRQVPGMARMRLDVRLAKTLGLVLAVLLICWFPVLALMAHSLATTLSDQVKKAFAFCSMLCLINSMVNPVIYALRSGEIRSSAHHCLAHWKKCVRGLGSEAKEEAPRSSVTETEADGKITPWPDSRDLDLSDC
Experiment: CB2 Binding Assay ([3H]WIN 55212-2, cell membrane homogenates)
Conditions: CB2; test concentration 1.0E−05 (MD)
Recorded % Inhibition of Control Specific Binding, one value per entry.
readout.label: % Inhibition of Control Specific Binding

# molecule, target.under.test, readout.label, reported.value
records = [
    ("CC1(Cc2ccccc2)COc2ccc(C(=O)NC3CCCCC3)cc21 (stereo not drawn)", "CB2 (Homo sapiens (Human), UniProt P34972)", "% Inhibition of Control Specific Binding", "72%"),
    ("CC1(Cc2ccccc2)COc2ccc(C(=O)Nc3ccccc3I)cc21 (stereo not drawn)", "CB2 (Homo sapiens (Human), UniProt P34972)", "% Inhibition of Control Specific Binding", "15%"),
    ("CC1(Cc2ccccc2)COc2cc(C(=O)Nc3ccccc3I)ccc21 (stereo not drawn)", "CB2 (Homo sapiens (Human), UniProt P34972)", "% Inhibition of Control Specific Binding", "23%"),
    ("CC1(Cc2ccccc2)COc2cc(C(=O)N3CCCCC3)ccc21 (stereo not drawn)", "CB2 (Homo sapiens (Human), UniProt P34972)", "% Inhibition of Control Specific Binding", "91%"),
    ("CC1(Cc2ccccc2)COc2ccc(C(=O)N3CCCCC3)cc21 (stereo not drawn)", "CB2 (Homo sapiens (Human), UniProt P34972)", "% Inhibition of Control Specific Binding", "31%"),
    ("CC1(Cc2ccccc2)COc2cc(C(=O)NC3CCCCC3)ccc21 (stereo not drawn)", "CB2 (Homo sapiens (Human), UniProt P34972)", "% Inhibition of Control Specific Binding", "85%"),
]

----------
Biological target: CB2 (Homo sapiens (Human), UniProt P34972)
Assay: CB2 Binding Assay ([3H]WIN 55212-2, cell membrane homogenates)
Conditions: CB2; test concentration 1.0E−05 (MD); first replicate
Recorded % of Control Specific Binding 1st, one value per entry.

# compound, % of Control Specific Binding 1st (%)
data = [
    ("CC1(Cc2ccccc2)COc2ccc(C(=O)N3CCCCC3)cc21 (stereo not drawn) [Example 6]", 71.6),
    ("CC1(Cc2ccccc2)COc2cc(C(=O)N3CCCCC3)ccc21 (stereo not drawn) [Example 3]", 13),
    ("CC1(Cc2ccccc2)COc2cc(C(=O)NC3CCCCC3)ccc21 (stereo not drawn) [Example 2]", 21.3),
    ("CC1(Cc2ccccc2)COc2cc(C(=O)Nc3ccccc3I)ccc21 (stereo not drawn) [Example 1]", 78.3),
    ("CC1(Cc2ccccc2)COc2ccc(C(=O)NC3CCCCC3)cc21 (stereo not drawn) [Example 5]", 29.9),
    ("CC1(Cc2ccccc2)COc2ccc(C(=O)Nc3ccccc3I)cc21 (stereo not drawn) [Example 4]", 83.9),
]

----------
Recorded % of Control Specific Binding 2nd, one value per entry.
Target: CB1 (Homo sapiens (Human))
Sequence (P21554 whole entry): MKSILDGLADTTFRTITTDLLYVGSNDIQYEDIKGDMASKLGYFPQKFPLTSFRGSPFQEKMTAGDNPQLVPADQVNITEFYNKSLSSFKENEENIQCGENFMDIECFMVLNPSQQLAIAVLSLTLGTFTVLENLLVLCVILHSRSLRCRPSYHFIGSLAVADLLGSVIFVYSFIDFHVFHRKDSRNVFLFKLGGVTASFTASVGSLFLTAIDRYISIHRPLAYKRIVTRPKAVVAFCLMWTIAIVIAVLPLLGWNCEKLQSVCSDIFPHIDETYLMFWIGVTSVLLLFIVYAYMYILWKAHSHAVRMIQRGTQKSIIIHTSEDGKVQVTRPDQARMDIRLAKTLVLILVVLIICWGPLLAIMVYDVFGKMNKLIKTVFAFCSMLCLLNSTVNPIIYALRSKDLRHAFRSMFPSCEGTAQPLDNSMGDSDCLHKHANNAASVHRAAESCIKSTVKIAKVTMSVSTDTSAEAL
Assay: CB1 Binding Assay ([3H]CP 55940, cell membrane homogenates)
Settings: CB1; test concentration 1.0E−05 (MD); second replicate

# compound, target.under.test, % of Control Specific Binding 2nd
records = [
    ("CC1(Cc2ccccc2)COc2cc(C(=O)Nc3ccccc3I)ccc21 (centres unmarked) [Example 1]", "CB1 (Homo sapiens (Human))", "85.3%"),
    ("CC1(Cc2ccccc2)COc2cc(C(=O)N3CCCCC3)ccc21 (centres unmarked) [Example 3]", "CB1 (Homo sapiens (Human))", "36%"),
    ("CC1(Cc2ccccc2)COc2ccc(C(=O)Nc3ccccc3I)cc21 (centres unmarked) [Example 4]", "CB1 (Homo sapiens (Human))", "95.1%"),
    ("CC1(Cc2ccccc2)COc2cc(C(=O)NC3CCCCC3)ccc21 (centres unmarked) [Example 2]", "CB1 (Homo sapiens (Human))", "33.8%"),
    ("CC1(Cc2ccccc2)COc2ccc(C(=O)NC3CCCCC3)cc21 (centres unmarked) [Example 5]", "CB1 (Homo sapiens (Human))", "60.8%"),
]
